# System: Bacillus subtilis vegetative cells
# protocolDetails: DNA release from B. subtilis by per-halogenated and oxidizing compounds, Acid-Hydrolysis HPLC Method
# Assay type: cell-based
# experimentalParameters: 15 mM compound, 70° C. 20 minutes; average of 3
Catalogue of % DNA release (Average) readings, one per entry.
reportedProperty: % DNA release (Average)

[
  {
    "compound": "[O-][I+3]([O-])([O-])O [Periodate, sodium (meta)periodate]",
    "systemName": "Bacillus subtilis vegetative cells",
    "reportedProperty": "% DNA release (Average)",
    "result": "44.0%"
  },
  {
    "compound": "O.O.O.O.[Na+].[O-]B1OO1 [Perborate, sodium perborate tetrahydrate, reference compound]",
    "systemName": "Bacillus subtilis vegetative cells",
    "reportedProperty": "% DNA release (Average)",
    "result": "6.1%"
  },
  {
    "compound": "[Na+].[O-][Cl+3]([O-])([O-])[O-] [Perchlorate, sodium perchlorate, reference compound]",
    "systemName": "Bacillus subtilis vegetative cells",
    "reportedProperty": "% DNA release (Average)",
    "result": "6.4%"
  },
  {
    "compound": "O=S(=O)([O-])OOS(=O)(=O)[O-].[Na+].[Na+] [Persulfate, sodium persulfate]",
    "systemName": "Bacillus subtilis vegetative cells",
    "reportedProperty": "% DNA release (Average)",
    "result": "15.0%"
  }
]
